Each entry below carries its recorded IC50.
Target: CDK6/CyclinD3 (Homo sapiens, UniProt Q00534)
Construct: purchased Carna 04-107
Sequence (Q00534 whole entry): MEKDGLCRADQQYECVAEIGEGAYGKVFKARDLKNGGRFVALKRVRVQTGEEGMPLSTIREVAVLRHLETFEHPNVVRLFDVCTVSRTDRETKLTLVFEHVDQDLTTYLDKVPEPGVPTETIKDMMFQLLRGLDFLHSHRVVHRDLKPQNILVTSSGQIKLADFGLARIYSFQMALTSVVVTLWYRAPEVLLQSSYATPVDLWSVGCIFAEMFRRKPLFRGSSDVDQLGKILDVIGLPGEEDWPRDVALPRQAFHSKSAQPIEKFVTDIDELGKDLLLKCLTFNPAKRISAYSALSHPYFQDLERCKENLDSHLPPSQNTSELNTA
Sequence (P30281 whole entry partner): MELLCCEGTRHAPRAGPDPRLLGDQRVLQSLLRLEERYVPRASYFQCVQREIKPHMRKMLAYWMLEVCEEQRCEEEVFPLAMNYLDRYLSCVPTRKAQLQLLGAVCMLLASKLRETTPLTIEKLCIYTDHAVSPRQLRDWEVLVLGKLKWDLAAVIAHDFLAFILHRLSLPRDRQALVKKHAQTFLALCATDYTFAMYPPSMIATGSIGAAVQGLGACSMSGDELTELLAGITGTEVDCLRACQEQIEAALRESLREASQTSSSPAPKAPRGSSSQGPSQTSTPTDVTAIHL
Assay: Assay for inhibition of CDK6/CyclinD3 (Caliper microfluidic kinase assay)
Format: biochemical
Conditions: CDK6/CyclinD3

>  <molecule>
CCN1CCN(Cc2ccc(Nc3ncc(F)c(-c4cc5c(ncn5C(C)C)c(OC)n4)n3)nc2)CC1

>  <IC50>
10 to 100 nM

$$$$
>  <molecule>
CC(C)n1cnc2c(OC(F)F)nc(-c3ccnc(Nc4ccc(N5CCOCC5=O)cn4)n3)cc21

>  <IC50>
10 to 100 nM

$$$$
>  <molecule>
COc1nc(-c2nc(NC3CCN(S(C)(=O)=O)CC3)ncc2F)cc2c1nc(C)n2C(C)C

>  <IC50>
100 to 1000 nM

$$$$

query: Fill in IC50 for record CCN1CCN(Cc2ccc(Nc3ncc(F)c(-c4cc5c(nc(C)n5C(C)C)c(OC)n4)n3)nc2)CC1
result: 10 to 100 nM

query: Fill in IC50 for record COc1nc(-c2nc(Nc3ccc(N4CCOCC4=O)cn3)ncc2Cl)cc2c1nc(C)n2C(C)C
result: < 10 nM

query: Fill in IC50 for record COc1nc(-c2nc(Nc3ccc(N4CCC(N(C)C)CC4)cn3)ncc2F)cc2c1ncn2C(C)C
result: 10 to 100 nM

query: Fill in IC50 for record CCn1cnc2c(OC)nc(-c3nc(Nc4ccc(N5CCOCC5=O)cn4)ncc3F)cc21
result: 100 to 1000 nM

query: Fill in IC50 for record COc1nc(-c2ccnc(Nc3ccc(N4CCOCC4=O)cn3)n2)cc2c1nc(C)n2C(C)C
result: 10 to 100 nM

query: Fill in IC50 for record COc1nc(-c2nc(Nc3ccc(N4CCOCC4=O)cn3)ncc2C)cc2c1nc(C)n2C(C)C
result: 10 to 100 nM

query: Fill in IC50 for record COc1nc(-c2nc(Nc3ccc(C(=O)N4CCC(NC5CC5)CC4)c(C)n3)ncc2F)cc2c1nc(C)n2C(C)C
result: 10 to 100 nM

query: Fill in IC50 for record CCN1CC2CC1CN2c1ccc(Nc2nccc(-c3cc4c(ncn4C(C)C)c(OC)n3)n2)nc1 (stereo not drawn)
result: 10 to 100 nM

query: Fill in IC50 for record COc1nc(-c2nc(Nc3ccc(N4CCC(N(C)C)CC4)cn3)ncc2F)cc2c1nc(C)n2C(C)C
result: 10 to 100 nM

query: Fill in IC50 for record COc1nc(-c2nc(Nc3ccc(N4CCOCC4=O)cc3F)ncc2F)cc2c1nc(C)n2C(C)C
result: 10 to 100 nM

query: Fill in IC50 for record COc1nc(-c2nc(Nc3ccc(N4CCOCC4=O)cn3)ncc2F)cc2c1nc(C)n2C(C)C
result: 10 to 100 nM

query: Fill in IC50 for record COc1nc(-c2nc(Nc3ccc(N4CCCOCC4=O)cn3)ncc2F)cc2c1nc(C)n2C(C)C
result: 10 to 100 nM

* * *

Target: CDK4/CyclinD1 (Homo sapiens, UniProt P11802)
Construct: purchased Thermofisher PR8064A
Sequence (P11802 whole entry): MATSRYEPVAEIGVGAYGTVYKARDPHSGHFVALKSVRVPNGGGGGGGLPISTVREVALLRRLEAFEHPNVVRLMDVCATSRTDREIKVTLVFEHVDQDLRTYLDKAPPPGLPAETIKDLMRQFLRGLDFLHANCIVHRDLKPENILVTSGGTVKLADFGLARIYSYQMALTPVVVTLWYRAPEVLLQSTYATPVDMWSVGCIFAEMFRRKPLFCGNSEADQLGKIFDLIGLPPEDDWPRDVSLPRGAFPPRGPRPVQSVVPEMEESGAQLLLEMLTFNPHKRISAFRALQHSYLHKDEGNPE
Sequence (P24385 whole entry partner): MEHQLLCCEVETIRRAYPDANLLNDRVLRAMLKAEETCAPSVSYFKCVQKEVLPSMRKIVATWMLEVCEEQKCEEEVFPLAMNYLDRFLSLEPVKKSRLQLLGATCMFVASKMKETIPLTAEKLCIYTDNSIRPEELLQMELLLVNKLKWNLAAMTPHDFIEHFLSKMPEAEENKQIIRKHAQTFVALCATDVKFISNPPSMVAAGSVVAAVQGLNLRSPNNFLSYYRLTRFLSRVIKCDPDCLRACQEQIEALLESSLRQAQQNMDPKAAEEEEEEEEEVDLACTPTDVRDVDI
Test: Assay for inhibition of CDK4/CyclinD1 (Caliper microfluidic kinase assay)
Assay type: biochemical
Conditions: CDK4/CyclinD1, 200 μM ATP
Protocol: The CDK4 enzyme assay for IC50 determination was performed as follows. Microfluidic kinase detection technology (Caliper) was used to monitor the phosphorylation of peptide substrate by CDK4/CyclinD1. […] The plate was then loaded on Caliper EZ Reader (EZ Reader II, PerkinElmer, HD-4HYSG2772), and the reaction mixtures including substrate and product were sipped into the microfluidic chip for separation and detection. […]
pIC50: −log10 of the molar value.
endpoint label: pIC50

>  <molecule>
CC(C)c1cnn2ccc(-c3nc(Nc4ccc(S(C)(=O)=O)cc4)ncc3F)cc12

>  <pIC50>
6.00 to 7.00

$$$$

query: Recall the reported pIC50 of Cc1nc2c(F)nc(-c3ccnc(Nc4ccc(N5CCCC(N(C)C)C5=O)cn4)n3)cc2n1C(C)C (stereo not shown) [Synthetic Example 301] on CDK4/CyclinD1 (Homo sapiens, UniProt P11802) and write it down.
result: > 8.00

* * *

Each entry below carries its recorded pIC50.
Molecular target: CDK4/CyclinD1 (Homo sapiens, UniProt P11802)
Construct: purchased Thermofisher PR8064A
Assay: Assay for inhibition of CDK4/CyclinD1 (Caliper microfluidic kinase assay)
Type: biochemical
Conditions: CDK4/CyclinD1, 200 μM ATP
pIC50: −log10 of the molar value.

Study these solved cases before continuing.
>  <molecule>
CCN1CCC(Cn2ccc(Nc3ncc(F)c(-c4ccn5ncc(C(C)C)c5c4)n3)cc2=O)CC1

>  <measured on>
CDK4/CyclinD1 (Homo sapiens, UniProt P11802)

>  <recorded value>
> 8.00

$$$$
>  <molecule>
CC(C)n1cnc2c(F)nc(-c3ccnc(Nc4ccc(N5CCN(C(C)(C)C)CC5)cn4)n3)cc21

>  <measured on>
CDK4/CyclinD1 (Homo sapiens, UniProt P11802)

>  <recorded value>
> 8.00

$$$$
>  <molecule>
COc1nc(-c2ccnc(Nc3ccc(N4CCC(C)(N)C4)cn3)n2)cc2c1ncn2C(C)C (centres unmarked)

>  <measured on>
CDK4/CyclinD1 (Homo sapiens, UniProt P11802)

>  <recorded value>
7.00 to 8.00

$$$$
>  <molecule>
CC(C)n1cnc2c1CN(c1nc(Nc3ccc(N4CCNCC4=O)cc3F)ncc1F)CC2

>  <measured on>
CDK4/CyclinD1 (Homo sapiens, UniProt P11802)

>  <recorded value>
> 8.00

$$$$

query: Fill in pIC50 for record CC(C)c1cnn2cc(-c3ccnc(Nc4ccc(N5CCNCCC5=O)cn4)n3)ccc12
result: > 8.00

* * *

Biological target: CDK6/CyclinD3 (Homo sapiens)
Construct: purchased Carna 04-107
Assay: Assay for inhibition of CDK6/CyclinD3 (Caliper microfluidic kinase assay)
Assay type: biochemical
Settings: CDK6/CyclinD3, 300 μM ATP
pIC50: −log10 of the molar value.
endpoint label: pIC50

Study these solved cases before continuing.
>  <compound>
CC(C)c1cnn2ccc(-c3ccnc(Nc4ccc(N5CCC(N)CC5=O)cn4)n3)cc12 (stereo not drawn)

>  <pIC50>
7.00 to 8.00

$$$$
>  <compound>
CC(C)c1cnn2ccc(-c3nc(NC4CCN(S(C)(=O)=O)CC4)ncc3F)cc12 [Synthetic Example 10]

>  <pIC50>
6.00 to 7.00

$$$$

query: Fill in pIC50 for record CC(C)c1cnn2ccc(-c3nc(Nc4ccc(N5C(=O)CC6CC5CN6)cn4)ncc3F)cc12 (stereo not drawn)
result: 7.00 to 8.00

* * *

Each entry below carries its recorded pIC50.
Molecular target: CDK4/CyclinD1 (Homo sapiens, UniProt P11802)
Construct: purchased Thermofisher PR8064A
Experiment: Assay for inhibition of CDK4/CyclinD1 (Caliper microfluidic kinase assay)
Format: biochemical
Settings: CDK4/CyclinD1, 200 μM ATP
pIC50: −log10 of the molar value.

>  <molecule>
CC(C)n1cnc2c(F)nc(-c3nc(Nc4ccc(N5CCC(N(C)C)CC5=O)cn4)ncc3Cl)cc21 (stereo not shown)

>  <measured on>
CDK4/CyclinD1 (Homo sapiens, UniProt P11802)

>  <pIC50>
> 8.00

$$$$
>  <molecule>
CCN1CCN(Cc2ccc(Nc3ncc(F)c(-c4cn5c(C(C)C)cnc5c(OC)n4)n3)nc2)CC1 [Synthetic Example 60]

>  <measured on>
CDK4/CyclinD1 (Homo sapiens, UniProt P11802)

>  <pIC50>
7.00 to 8.00

$$$$
>  <molecule>
COc1nc(-c2ccnc(Nc3ccc(N4CCN(CCF)CC4)cn3)n2)cc2c1ncn2C(C)C

>  <measured on>
CDK4/CyclinD1 (Homo sapiens, UniProt P11802)

>  <pIC50>
> 8.00

$$$$
>  <molecule>
CCN1CCN(c2ccc(Nc3nccc(-c4cc5c(ncn5C(C)C)c(F)n4)n3)nc2)C(=O)C1

>  <measured on>
CDK4/CyclinD1 (Homo sapiens, UniProt P11802)

>  <pIC50>
> 8.00

$$$$
>  <molecule>
Cc1cc(N2CCNCC2=O)ccc1Nc1nccc(-c2ccn3ncc(C(C)C)c3c2)n1

>  <measured on>
CDK4/CyclinD1 (Homo sapiens, UniProt P11802)

>  <pIC50>
7.00 to 8.00

$$$$

query: Fill in pIC50 for record O=C1COCCN1c1ccc(Nc2ncc(F)c(-c3ccn4ncc(C5=CCOCC5)c4c3)n2)nc1
result: 7.00 to 8.00

query: Fill in pIC50 for record CC(C)c1cnn2ccc(-c3nc(Nc4ccc(N5CCN(CCO)CCC5=O)cn4)ncc3F)cc12 [Synthetic Example 52]
result: > 8.00

query: Fill in pIC50 for record CC(C)c1cnn2ccc(-c3ccnc(Nc4ccc(N5CCC(N(C)C)CC5=O)cc4F)n3)cc12 (stereo not shown)
result: > 8.00

query: Fill in pIC50 for record COc1nc(-c2ccnc(Nc3ccc(N4CC5CC4CN5)cn3)n2)cc2c1ncn2C(C)C (stereo not shown)
result: > 8.00

query: Fill in pIC50 for record CC(C)c1cnn2ccc(-c3ccnc(Nc4ccc(C(=O)N5CCC5)cc4)n3)cc12
result: > 8.00

query: Fill in pIC50 for record CC(C)c1cnn2ccc(-c3ccnc(Nc4ccc(N5CCN(CCO)CC5=O)cn4)n3)cc12
result: > 8.00

query: Fill in pIC50 for record CC(C)n1cnc2c(F)nc(-c3ccnc(Nc4ccc(N5CCCC(N)C5=O)cc4)n3)cc21 (stereo not shown)
result: > 8.00

query: Fill in pIC50 for record COc1nc(-c2ccnc(Nc3ccc(N4CCN(C5COC5)CC4)cn3)n2)cc2c1ncn2C(C)C
result: > 8.00

query: Fill in pIC50 for record CC(C)c1cnn2ccc(-c3ccnc(Nc4ccc(N5CCCC(N)C5=O)cc4)n3)cc12 (stereo not shown)
result: > 8.00

Values from patent US20220296595A1
